Catalogue of log10 IC50 readings, one per entry.
target system: PAR2 (HT-29 cells) (Homo sapiens, UniProt P55085)
Construct: host or cells: HT-29
Sequence (P55085 26-397): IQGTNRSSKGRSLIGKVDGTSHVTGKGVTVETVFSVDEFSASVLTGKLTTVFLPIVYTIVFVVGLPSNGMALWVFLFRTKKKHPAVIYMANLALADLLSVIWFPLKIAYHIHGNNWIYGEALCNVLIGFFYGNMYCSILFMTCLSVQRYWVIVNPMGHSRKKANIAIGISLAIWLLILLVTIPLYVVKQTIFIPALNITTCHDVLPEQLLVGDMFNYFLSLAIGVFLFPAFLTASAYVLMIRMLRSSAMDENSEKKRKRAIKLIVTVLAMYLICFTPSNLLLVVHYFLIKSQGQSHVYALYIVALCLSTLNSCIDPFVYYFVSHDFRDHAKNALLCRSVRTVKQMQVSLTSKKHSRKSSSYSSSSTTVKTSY
protocol summary: Ca FLIPR TETRA assay, ANTAGONIST mode, activator 3.1 U/mL trypsin
Assay type: cell-based
stated conditions: HT-29 cells; activator 3.1 U/mL trypsin; Method A: maximal concentration of antagonist 0.1, 1 or 2 μM
endpoint: log10 IC50 (log10 of the value in nM)

>>> numeric_value("CC(C)(C)c1cc(-c2ccc(Cl)cc2)nc2cc(C(=O)N3CCN(c4nc(C(=O)O)co4)CC3(C)C)oc12 [Example I-481]")
-0.40
>>> numeric_value("Cc1cnc(N2CCN(C(=O)c3cc4nc(-c5ccc(Cl)c(F)c5)cc(C(C)(C)C)c4o3)C(C)(C)C2=O)nc1 [Example I-371]")
0.72
>>> numeric_value("CC(C)[C@H](CC(=O)N1CCN(C(=O)c2cc3nc(-c4ccc(Cl)c(F)c4)cc(C(C)(C)C)c3o2)C(C)(C)C1)C(=O)O [Example I-343]")
-0.40
>>> numeric_value("CC(C)(C)c1cc(-c2ccc(Cl)c(F)c2)nc2cc(C(=O)N3CCN(c4cccnn4)C(=O)C3(C)C)oc12 [Example I-357]")
1.00
>>> numeric_value("CC(C)(C)c1cc(-c2ccc(Cl)c(F)c2)nc2cc(C(=O)N3CCN(c4ncccc4C(=O)O)CC3(C)C)oc12 [Example I-351]")
0.95
>>> numeric_value("CC1(C)CCC(c2cc(C(C)(C)C)c3oc(C(=O)N4CCN(C(=O)CC5(C(=O)O)CCC5)CC4(C)C)cc3n2)CC1 [Example I-338]")
-0.30
>>> numeric_value("Cc1c(C(=O)O)ccnc1N1CCN(C(=O)c2cc3nc(-c4ccc(Cl)c(F)c4)cc(C(C)(C)C)c3o2)C(C)(C)C1 [Example I-538]")
-0.22
>>> numeric_value("CC(C)(C)c1cc(-c2ccc(Cl)cc2)nc2cc(C(=O)N3CCN(c4ncc(C(=O)O)cc4F)CC3(C)C)oc12 [Example I-393]")
-0.52
>>> numeric_value("CC(C)(C)c1cc(-c2ccc(Cl)c(F)c2)nc2cc(C(=O)N3CCN(c4nccc(C(=O)O)n4)CC3(C)C)oc12 [Example I-461]")
-0.30
>>> numeric_value("CC1(C)CCC(c2cc(C(C)(C)C)c3oc(C(=O)N4CCN(c5cccc(C(=O)O)n5)C(=O)C4(C)C)cc3n2)CC1 [Example I-458]")
1.26
>>> numeric_value("CC(C)(C)c1cc(-c2ccc(Cl)c(F)c2)nc2cc(C(=O)N3CCN(c4cc(C(=O)O)ncn4)CC3(C)C)oc12 [Example I-490]")
0.59
>>> numeric_value("CC(C)(C)c1cc(-c2ccc(Cl)c(F)c2)nc2cc(C(=O)N3CCN(C(=O)[C@@H]4CCCC[C@H]4C(=O)O)CC3(C)C)oc12 [Example I-506]")
1.32
>>> numeric_value("Cc1cnc(N2CCN(C(=O)c3cc4nc(-c5ccc(Cl)cc5)cc(C(C)(C)C)c4o3)C(C)(C)C2)nc1C(=O)O [Example I-521]")
0.08

// data source = patent US20180057505A1
